- assay-target: T1, recombinant soluble human TREM2 protein (human TREM2 ECD-FlagHis) (human, UniProt Q9NZC2 19-174)
- T1 sequence: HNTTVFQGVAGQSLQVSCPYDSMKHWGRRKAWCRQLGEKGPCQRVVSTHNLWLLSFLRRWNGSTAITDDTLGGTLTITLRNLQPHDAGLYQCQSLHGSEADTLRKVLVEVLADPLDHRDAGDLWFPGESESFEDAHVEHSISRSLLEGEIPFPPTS
- assay-summary: Octet BLI binning; competitor: load Ab 24G6
endpoint-label: sandwich binding signal
Note: the reply should be a number with no unit written.

binder	sandwich binding signal
26C10 (antibody, human IgG2, V domains shown, human IgG2 from hybridoma) VH: EVQLVESGGALVQPGGSLRLSCAASGFTFSSFGMSWVRQAPGKGLEWVSYISSSSFTIYYADSVKGRFTISRDNAKNSFYLQMNSLRDEDTAVYFCVREGGITMVRGVSSYGMDVWGQGTTVTVSS VL: SFELTQPPSVSVSPGQTASITCSGDKLGDKYVCWYQQKPGQSPMLVIYQDTKRPSGIPERFSGSNSGNTATLTISGTQAMDEADYYCQAWDSSTVVFGGGTKLTVL	0.384
5E3 (antibody, human IgG2, V domains shown, human IgG2 from hybridoma) VH: QVQLVQSGAEVKKPGASVKVSCKASGYTFTGYYIHWVRQAPGLGLEWMGWINPYSGGTTSAQKFQGRVTMTRDTSISSAYMELSRLRSDDTAVYYCARDGGYLALYGTDVWGQGTTVTVSS VL: DIQMTQSPSSLSASVGDRVTITCRASQGISNYLAWFQQKPGKAPKSLIYAASSLQSGVPSKFSGSGSGTDFTLTISSLQPEDFATYYCQQYSTYPFTFGPGTKVDIK	0.328
16B8 (antibody, human IgG4, V domains shown, human IgG4 (G4) from hybridoma) VH: QVQLVQSGAEVKKPGASVKVSCKASGYTFTNYGISWVRQAPGQGLEWMGWISAYNGNTNYAQKLQGRVTMTTDTSTSTVYMELRSLRSDDTAVYYCARRGYSYGSFDYWGQGTLVTVSS VL: DIQMTQSPSSVSASVGDRVTVTCRASQDINSWLAWYQQKPGKAPKLLIYAASSLQTGVPSRFSGSGSGTDFTLTISSLQPEDFATYSCQQSNSFPITFGQGTRLEIK	0.369

Note: attention shifts to another entry.
IN: Give reported sandwich binding signal value for 32E3 (antibody, human IgG2, V domains shown, human IgG2 from hybridoma) VH: EVQLVQSGAEVKKPGESLKISCKGSGYSFTSYWIGWVRQMPGKGLEWMGIIYPGDSDTRYSPSFQGQVTISADKSISTAYLQWSTLKASDTAIYYCARHDIIPAAPGAFDIWGQGTMVTVSS VL: EFVLTQSPGTLSLSPGERATLSCRASQIISSNYLAWYQQKPGQAPRLLIYSASSRATGIPDRFSGSGSGTDFTLTISRLEPEDFAVYYCQQFDSSPITFGRGTRLDIK
OUT: 0.126
